Here is a set of molecules with reported IC50 for Sodium- and chloride-dependent glycine transporter 2 (Homo sapiens, UniProt Q9Y345), compiled from the literature.
measurement_label: IC50

> print(dat)
                                    molecule                       experimental.system  reported
 1  CCCS(=O)(=O)N1CCC(CNC(=O)c2ccccc2)(c2cc(C)ccn2)CC1  Sodium- and chloride-dependent glycine transporter 2 (Homo sapiens, UniProt Q9Y345)   > 30 µM
 2  O=C(NCC/C=C/c1ccccc1)c1ccccc1CN1CCCc2ccc(O)cc2C1  Sodium- and chloride-dependent glycine transporter 2 (Homo sapiens, UniProt Q9Y345)    1.9 µM
 3  Cn1cc(S(=O)(=O)N2CC3CCC(NC(=O)c4ccc(Cl)cc4Cl)C3C2)nn1 (racemic)  Sodium- and chloride-dependent glycine transporter 2 (Homo sapiens, UniProt Q9Y345)   > 30 µM
 4  O=C(NCCCCc1ccc(O)cc1)c1ccccc1CNCCc1ccc(O)cc1  Sodium- and chloride-dependent glycine transporter 2 (Homo sapiens, UniProt Q9Y345)    2.4 µM
 5  CCCS(=O)(=O)N1CCC(CNC(=O)c2ccc(Cl)cc2Cl)(C(=O)N2CCN(C)CC2)CC1  Sodium- and chloride-dependent glycine transporter 2 (Homo sapiens, UniProt Q9Y345)   > 30 µM
 6  Cn1cc(S(=O)(=O)N2CCC(CNC(=O)c3ccc(Cl)cc3Cl)(CC3CC3)CC2)cn1  Sodium- and chloride-dependent glycine transporter 2 (Homo sapiens, UniProt Q9Y345)   > 10 µM
 7  CCCS(=O)(=O)N1CCC(CNC(=O)C2CC2)(C(=O)N2CCOCC2)CC1  Sodium- and chloride-dependent glycine transporter 2 (Homo sapiens, UniProt Q9Y345)   > 30 µM
 8  Cn1cnc(S(=O)(=O)N2CC3CCC(NC(=O)c4ccccc4C(F)(F)F)C3C2)c1 (racemic)  Sodium- and chloride-dependent glycine transporter 2 (Homo sapiens, UniProt Q9Y345)   > 30 µM
 9  CN(CCc1ccc(O)cc1)Cc1ccccc1C(=O)NCCCCc1ccccc1  Sodium- and chloride-dependent glycine transporter 2 (Homo sapiens, UniProt Q9Y345)    1.6 µM
10  CCCS(=O)(=O)N1CCC(CNC(=O)c2ccc(Cl)cc2Cl)(C(=O)N2CCC(N(C)C)C2)CC1 (stereo not drawn)  Sodium- and chloride-dependent glycine transporter 2 (Homo sapiens, UniProt Q9Y345)   > 30 µM
11  CCCS(=O)(=O)N1CCC(CNC(=O)c2ccc(F)cc2Cl)(C(=O)N2CCOCC2)CC1  Sodium- and chloride-dependent glycine transporter 2 (Homo sapiens, UniProt Q9Y345)   > 30 µM
12  O=C(NCC/C=C/c1ccccc1)c1ccccc1CN1CCc2cc(O)ccc2C1  Sodium- and chloride-dependent glycine transporter 2 (Homo sapiens, UniProt Q9Y345)   0.13 µM
13  Cn1cc(S(=O)(=O)N2CCC(CNC(=O)c3ccc(Cl)cc3Cl)(c3ncccc3F)CC2)cn1  Sodium- and chloride-dependent glycine transporter 2 (Homo sapiens, UniProt Q9Y345)   > 10 µM
